Molecular target: T1, human 5T4 oncofoetal antigen (human, UniProt Q13641 32-420)
T1 construct: whole, on cells; also called hu 5T4; human 5T4 antigen
T1 sequence (looked up): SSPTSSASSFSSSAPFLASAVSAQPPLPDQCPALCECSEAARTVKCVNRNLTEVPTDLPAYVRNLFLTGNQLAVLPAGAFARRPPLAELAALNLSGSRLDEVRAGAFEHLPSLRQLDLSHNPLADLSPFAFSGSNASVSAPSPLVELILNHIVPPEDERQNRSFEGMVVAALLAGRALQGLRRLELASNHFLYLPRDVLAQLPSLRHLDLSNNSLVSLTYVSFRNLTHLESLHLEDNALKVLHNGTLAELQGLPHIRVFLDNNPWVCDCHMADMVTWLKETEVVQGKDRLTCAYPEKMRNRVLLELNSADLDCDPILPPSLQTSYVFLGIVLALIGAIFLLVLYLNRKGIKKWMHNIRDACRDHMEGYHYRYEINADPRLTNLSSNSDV
Assay: flow cytometry, PA-1 cells

| Binder | EC50 |
| --- | --- |
| chimeric anti-5T4 monoclonal antibody 828 (antibody, human IgG1, V domains shown) VH: QSVEESGGRLVTPGTPLTLTCTVSEIDLSTYAMSWVRQAPGKGLEWIGIISAGGSAYYASWAKGRFTISRTSTTVDLKMTSLTTEDTATYFCARGAAYAGYTYGFSFFDIWGPGTLVTVSL VL: DIVMTQTPSSVSAAVGGTVTINCQASQNIYSNLAWYQQKPGQRPKLLIYGASNLESGVPSRFKGSGSGTEYTLTISDLESDDAATYYCQSIDYGNNYLGSFGGGTEVVVK | 0.1 µg/mL |
| chimeric anti-5T4 monoclonal antibody 811 (antibody, human IgG1, V domains shown) VH: QSVEESGGRLVTPGTSLTLTCTASGFSLSTYAMIWVRQAPGKGLEWIGIINSSGYTYYANWAKGRFTISKTSTTVDLKITSPTTEDTATYFCARGNAGISYDVSFNLWGQGTLVTVSS VL: AYDMTQTPASVEAGVGGTVTINCQASESISSWLAWYQQKPGQPPNLLIYEASKLASGVPSRFSGSGSGTEFTLTISGVESADAATYYCQQGWTSSNIDNAFGGGTEVVVK | 0.4 µg/mL |
| chimeric anti-5T4 monoclonal antibody 833 (antibody, IgG1, V domains shown, also called clone 833) VH: QSLEESGGGLVTPGGSLTLTCTGSGIDLSHYVVGWVRQAPGKGLEWIGIIYGSGRTYYANWAKGRFTISKTSTTVDLRIARPTAEDTATYFCARDASVSVYYWGYFDLWGQGTLVTVSS VL: AYDMTQTPVSVEVAVGGTVTIKCQASQSIGSELAWYQQKPGQPPKLLIYRASTLESGVPSRFSGSGSGTEFTLTISGVESADAATYYCQQGYTYSEIDNAFGGGTEVVVK | 0.02 µg/mL |
| chimeric anti-5T4 monoclonal antibody 868 (antibody, human IgG1, V domains shown) VH: QSVEESGGRLVTPGTPLTLTCTASGFSLSDYTMGWVRQAPGKGLEWIGIINGYGSTYYANWAKGRFAISKTSTTVDLKITSPATEDTATYFCARGDTGRTYDMHFNLWGQGTLVTVSS VL: AYDMTQTPASVSAAVGGTVTIKCQASESIRSWLAWYQQKPGQPPKLLIYSASTLASGVSSRFKGSGSGTQFTLTIGDLESADAATYYCQQGYTSSNLDNAFGGGTEVLVK | 0.04 µg/mL |
